test system: human CYP11B1 (Homo sapiens)
Sequence (P15538 25-503): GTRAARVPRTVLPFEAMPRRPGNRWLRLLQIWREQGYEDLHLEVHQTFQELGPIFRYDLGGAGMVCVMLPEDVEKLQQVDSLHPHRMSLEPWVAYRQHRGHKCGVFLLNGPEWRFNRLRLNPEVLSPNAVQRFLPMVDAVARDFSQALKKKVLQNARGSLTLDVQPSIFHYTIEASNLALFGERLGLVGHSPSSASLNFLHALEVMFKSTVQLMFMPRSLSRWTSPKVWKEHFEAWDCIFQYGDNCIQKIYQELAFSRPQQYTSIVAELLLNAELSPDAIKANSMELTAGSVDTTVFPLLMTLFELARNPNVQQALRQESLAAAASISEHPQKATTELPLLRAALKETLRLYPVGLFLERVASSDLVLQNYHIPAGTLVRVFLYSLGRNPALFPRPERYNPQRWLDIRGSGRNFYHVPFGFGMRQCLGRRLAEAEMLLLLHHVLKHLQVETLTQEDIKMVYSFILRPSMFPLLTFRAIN
measurement notes: G-402 cellular enzyme assay, human CYP11B1 (cortisol release, HTRF)
condition summary: G-402 cells, 1 μM Deoxycortisol
Excerpt: Herein we identified the use of the G-402 cell line as a host cell to ectopically express (transiently or stably) enzymes of the CYP11 family. […] Importantly the identified cell line G-402 expresses co-factors (adrenodoxin and adrenodoxin reductase) important for the activity of the CYP11 family and no relevant enzyme activity of the CYP11 family (in comparison to H295R cells) was detected in these cells. […]
result type: EC50 (nM)

Below, 5 compounds whose answers are already recorded.
COc1ccc2c(n1)CCN(c1cccnc1)C2=O	6830
CC(=O)N1CCCC(c2cncc(N3C(=O)c4ccc(Cl)cc4C3(C)C)n2)C1 (stereo not drawn)	720
O=C(NC1CC1)c1cncc(N2CCc3cc(Cl)ccc3C2=O)c1	16900
COc1cncc(N2CCc3nc(OC)ccc3C2=O)c1	220
CS(=O)(=O)NC1CCCc2c1cncc2N1CCc2cc(Cl)ccc2C1=O (single isomer, unassigned)	4490

a = O=C1c2ccc(Cl)cc2C(C2CC2)N1c1cncc(F)c1 (stereo not drawn)
b = O=C1c2ccc(Cl)cc2CCN1c1cncc(-c2ccc(F)c(F)c2)c1
Name the one with the greater EC50 value, either a or b as given. Respond with the label that goes with your answer.
a
(a: 12800 nM, b: 1350 nM)

I = O=C1OCCN1Cc1cncc(N2CCc3cc(Cl)ccc3C2=O)c1
II = O=C1c2ccc(Cl)cc2C2(CC2)N1c1cncc(CNc2cc[nH]n2)c1
Name the one with the greater EC50 value, either I or II as given. Respond with the label that goes with your answer.
I

P = Nc1cncc(N2CCc3cc(Cl)ccc3C2=O)c1
Q = CCS(=O)(=O)N1CCC(Oc2cncc(N3C(=O)c4ccc(Cl)cc4C3(C)C)c2)C1 (stereo not drawn)
R = O=C1c2ccc(Cl)cc2CN1c1cccnc1
Order the entries by their reported EC50, beginning at the minimum. A ranking is expressed here by listing the labels in the requested order.
Q, R, P
(Q: 263 nM, R: 9780 nM, P: 14000 nM)

I = O=C1c2ccc(Cl)cc2CCN1c1cncc2ccccc12
II = CC(=O)N[C@H]1CCCc2c1cncc2N1C(=O)c2ccc(Cl)cc2[C@H]1C (single isomer, unassigned)
III = CC(=O)N1CC[C@@H](Oc2cncc(N3C(=O)c4ccc(Cl)cc4C3(C)C)c2)C1
IV = O=C1c2ccc(Cl)cc2CCN1c1cncc(Cn2ccnc2CO)c1
Rank the 4 compounds: largest EC50 first, smallest last. A ranking is expressed here by listing the labels in the requested order.
IV, II, III, I
(IV: 3360 nM, II: 2330 nM, III: 427 nM, I: 251 nM)
